- Tested on: JIMT-1
- experimental-protocol: Antiproliferative activity against human JIMT-1 cells after 72 hrs by SRB assay
- Assay type: functional, cell-based
- recorded-conditions: JIMT-1, 72 h
Attribute: pIC50
In simple prose, pIC50 is minus the logarithm base ten of a concentration in moles per litre.

Answered cases to consult:
COc1cccc(-c2cc(Nc3ccnc(N4CCOCC4)n3)on2)c1 ... 5.46
COc1ccc(-c2cc(Nc3ccnc(N4CCC(F)CC4)n3)on2)cc1 ... 6.89
COc1ccc(-c2cc(Nc3ccnc(N4CCOCC4)n3)on2)cc1 ... 6.92
CN(C)c1ccc(-c2cc(Nc3ccnc(N4CCOCC4)n3)on2)cc1 ... 6.92

Now turn to the next compound.
Which pIC50 value is on record for COc1ccc(-c2cc(Nc3ccnc(N4C5CCC4COC5)n3)on2)cc1F ? 7.28

----------
- Tested on: JIMT-1
- experimental-protocol: Antiproliferative activity against human JIMT-1 cells after 72 hrs by SRB assay
- Format: functional, cell-based
- recorded-conditions: JIMT-1, 72 h
The threshold is 200 nM. Values of IC50 beneath it are tagged true; values meeting or exceeding it are tagged false.

Solved cases (6 shown):
COc1ccc(-c2cc(Nc3ccnc(N4CCOCC4)n3)on2)cc1OC ... false
COc1ccc(-c2cc(Nc3ccnc(N4CCCC4)n3)on2)cc1F ... true
COc1ccc(-c2cc(Nc3ccnc(N4CCNCC4)n3)on2)cc1 ... false
Oc1ccc(-c2cc(Nc3ccnc(N4CCOCC4)n3)on2)cc1 ... false
CCOC(=O)C1CCN(c2nccc(Nc3cc(-c4ccc(OC)cc4)no3)n2)CC1 ... false
COc1ccc(-c2cc(N(C)c3ccnc(N4CCOCC4)n3)on2)cc1 ... true

Does this compound meet the criterion IC50 < 200 nM? COc1ccc(-c2cc(Nc3ccnc(N4CCN(C)CC4)n3)on2)cc1 false

Also, COc1ccc(-c2cc(Nc3ccnc(N4CCOCC4)n3)on2)cn1 please. false

Also, CCc1ccc(-c2cc(Nc3ccnc(N4CCOCC4)n3)on2)cc1 please. false

Also, CSc1ccc(-c2cc(Nc3ccnc(N4CCOCC4)n3)on2)cc1 please. true

Also, COc1ccc(-c2cc(Nc3ccnc(N4CCC(C(=O)O)CC4)n3)on2)cc1 please. false

Also, FC(F)(F)Oc1ccc(-c2cc(Nc3ccnc(N4CCOCC4)n3)on2)cc1 please. false

Also, COc1ccc(-c2cc(Nc3ccnc(N4CCSCC4)n3)on2)cc1 please. true

Also, c1ccc(COc2ccc(-c3cc(Nc4ccnc(N5CCOCC5)n4)on3)cc2)cc1 please. false

Also, COc1ccc(-c2cc(Nc3ccnc(N4CCS(=O)(=O)CC4)n3)on2)cc1 please. false

Also, COc1ccc(-c2cc(Nc3ccnc(N4CCOCC4)n3)on2)cc1F please. true

Also, COc1ccc(-c2cc(Nc3ccnc(N4CC5CCC(C4)O5)n3)on2)cc1 please. false

Also, COc1ccccc1-c1cc(Nc2ccnc(N3CCOCC3)n2)on1 please. false

Also, COc1ccc(-c2cc(Nc3ccnc(N4CCC(NN5CCOCC5)CC4)n3)on2)cc1 please. false

Also, FC(F)Oc1ccc(-c2cc(Nc3ccnc(N4CCOCC4)n3)on2)cc1 please. false

Also, COc1ccc(-c2cc(Nc3ccnc(N4CCCC4)n3)on2)cc1 please. true
